Data origin, for the record: patent US12054497B2

Assay: Pharmacokinetic evaluation on mice, intragastric (PO) administration (Test Example 6)
Assay type: in vivo
Conditions: mouse; PO 15 mg/kg, male CD-1 mice, plasma; read-out: Cmax
Here the recorded log10(Cmax) is given for each entry.
A value of 2 here means Cmax of 100 in ng/mL, since values are log10.

Worked set:
- compound: "C=CC(=O)N1CCN2c3c(c(=O)n(-c4c(C(C)C)ncnc4C(C)C)c4nc(-c5c(O)cccc5F)c(Cl)cc34)N(C)C(=O)[C@H]2C1"
  log10(Cmax): 3.10
- compound: "C=CC(=O)N1C[C@@H]2C(=O)N(C)c3c(c4cc(F)c(-c5c(O)cccc5F)nc4n(-c4c(C)ccnc4C(C)C)c3=O)N2C[C@H]1C (single isomer, unassigned)"
  log10(Cmax): 3.60
- compound: "C=CC(=O)N1CCN2c3c(c(=O)n(-c4c(C)ccnc4C(C)C)c4nc(-c5c(O)cccc5F)c(Cl)cc34)N(C)C(=O)[C@H]2C1 (single isomer, unassigned)"
  log10(Cmax): 3.82
- compound: "C=CC(=O)N1CCN2c3c(c(=O)n(-c4c(C)ccnc4C(C)C)c4nc(-c5c(O)cccc5F)c(F)cc34)OC[C@H]2C1"
  log10(Cmax): 3.41
- compound: "C=CC(=O)N1C[C@@H]2C(=O)N(C)c3c(c4cc(Cl)c(-c5c(O)cccc5F)nc4n(-c4c(C)ccnc4C(C)C)c3=O)N2C[C@H]1C (single isomer, unassigned)"
  log10(Cmax): 3.56

Let's switch to this compound now.
Q. Item under review: C=CC(=O)N1CCN2c3c(c(=O)n(-c4c(C)ccnc4C(C)C)c4nc(-c5c(O)cccc5F)c(F)cc34)N(C)C(=O)[C@H]2C1 (single isomer, unassigned) . Reported log10(Cmax)?
A. 4.12
